measured-target: T1, cynomolgus IL-17F homodimer (cynomolgus, UniProt G7P4V0 31-163)
T1 sequence: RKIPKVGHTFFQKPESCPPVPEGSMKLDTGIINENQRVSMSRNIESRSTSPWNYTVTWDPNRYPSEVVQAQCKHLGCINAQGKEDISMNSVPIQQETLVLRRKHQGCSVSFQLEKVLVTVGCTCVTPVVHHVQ
protocol-details: cell-based or functional assay
# IC50, IL-6 secretion by MEF cells, cytokine at 25 ng/ml annotations
# include the unit after the value

Field: example entries. Status: answers known.
| binder | measured |
| --- | --- |
| 30D12BF antibody (antibody, V domains shown) VH: QVQLVQSGAEVKKPGASVKVSCKASGYTFTSYDINWVRQATGQGLEWMGWLNPDSGVIRYAQKFQGRVTMTRDTSISTAYMELSSLRSEDTAVYYCAREWFGELPSYYFYSGMDVWGQGTTVTVSS VL: EIVLTQSPATLSLSPGERATLSCRASQSVSSYLAWYQQKPGQAPRLLIYDASNRATGIPARFSGSGSGTDFTLTISSLEPEDFAVYYCQQRSNWPPTFGPGTKVDIK | 130 nM |
| 12B12 antibody (antibody, IgG4, V domains shown) VH: QVQLVQSGAEVKKPGSSVKVSCKASGGTLSSYAFSWVRQAPGQGLEWMGGIIPFFGTVNYAQKFQGRVTITADESTNTAYMELSSLRSEDTAVYYCARDRDYYGLGSPLHYYGLDVWGQGTTVTVSS VL: EIVLTQSPDFQSVTPKEKVTITCRASQSIGSSLHWYQQKPDQSPKLLIKYASQSFSGVPSRFSGSGSGTDFTLTINSLEAEDAAAYYCHQSSSLPWTFGQGTKVEIK | 3.2 nM |

Consider the binder shown here: 39F12 antibody (antibody, IgG4, V domains shown, also called Mab06a; 39F12 IgG4) VH: QVQLVQSGAEVKKPGSSVKVSCKASGGTLSSYAFSWVRQAPGQGLEWMGGIIPFFGTTNYAQKFQGRVIITADESTNTAYMELSGLRSEDTAVYYCARDRDYYGLGSPFYYYGMDVWGQGTTVTVSS VL: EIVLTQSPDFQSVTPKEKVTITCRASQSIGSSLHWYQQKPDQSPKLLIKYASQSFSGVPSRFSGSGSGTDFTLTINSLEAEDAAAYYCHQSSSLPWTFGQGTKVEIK What is its recorded IC50, IL-6 secretion by MEF cells, cytokine at 25 ng/ml? 5.2 nM
